Experiment: in vitro
Conditions: male, human, pH 7.5
Method: As the parameters Vmax and Km were determined by the same experimental setup, the enzyme efficiency (EE) for the metabolic reactions is calculated as the ratio of Vmax to Km. […] The supernatant (300 μL) obtained following centrifugation in the metabolism experiments was added to a cob(I)alamin solution (200 μL) in water. […] The MS was operated using electrospray positive-ionization (ESI^+) and quantification performed using multiple reaction monitoring (MRM) mode. […]
METRIC: Km (µM)
Report the value in µM with no unit label.

Asked: Output measured Km for this item: NC(=O)C1CO1 (racemic) [GA, rac-Glycidamide]
Given back: 26

---

test: in vitro; conditions: male, Sprague-Dawley, rat, pH 7.5
METRIC: Km (µM)
Report the value in µM with no unit label.

Asked: Output measured Km for this item: NC(=O)C1CO1 (racemic) [GA, rac-Glycidamide]
Given back: 6
